Target: HIF-PHD2 (Homo sapiens, UniProt Q9GZT9)
Construct: FLAG-tagged full length PHD2 expressed in and purified from baculovirus-infected Sf9 cells; FLAG; made in house; host or cells: baculovirus-infected Sf9 cells
Sequence (Q9GZT9 whole entry): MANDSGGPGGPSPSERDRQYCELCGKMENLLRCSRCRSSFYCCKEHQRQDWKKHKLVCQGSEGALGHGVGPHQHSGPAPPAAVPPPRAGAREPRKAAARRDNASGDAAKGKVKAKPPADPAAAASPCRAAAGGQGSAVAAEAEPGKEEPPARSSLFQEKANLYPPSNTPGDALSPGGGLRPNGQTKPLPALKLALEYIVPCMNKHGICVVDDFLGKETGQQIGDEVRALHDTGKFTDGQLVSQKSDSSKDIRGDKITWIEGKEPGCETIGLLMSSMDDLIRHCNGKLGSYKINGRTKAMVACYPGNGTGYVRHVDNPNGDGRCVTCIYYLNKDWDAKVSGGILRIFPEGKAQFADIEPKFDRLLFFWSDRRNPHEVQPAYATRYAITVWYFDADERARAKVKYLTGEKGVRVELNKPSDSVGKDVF
Test: Assay for HIF-PHD2 Catalytic Activity (PHD2 Binding Activity)
Type: biochemical
compounds and their reported IC50
Metric: IC50

compound=COc1cc(OC)nc(N2C(=O)N(c3ccc(-c4ccccc4)cc3)C(=O)C23CCN(Cc2ncccc2C)CC3)n1 measured_value="0.5 to 20 nM"
compound=Cc1cccnc1CN1CCC2(CC1)C(=O)N(c1ccc(-c3ccccc3)cc1)C(=O)N2c1ncccc1O measured_value="20 to 50 nM"
compound=O=C(O)c1[nH]cnc1CN1CCC2(CC1)C(=O)N(c1ccc(-c3ccccc3)cc1)C(=O)N2c1ncccn1 measured_value="0.5 to 20 nM"
compound=COc1ccnc(N2C(=O)N(c3ccc(-c4ccccc4)cc3)C(=O)C23CCN(Cc2ncccc2Br)CC3)n1 measured_value="20 to 50 nM"
compound="Cc1cccnc1CN1CCC2(C(=O)N(c3ccc(-c4ccccc4)cc3)C(=O)N2c2ncccn2)C(C(=O)O)C1 (stereo not shown)" measured_value="0.5 to 20 nM"
compound="Cc1cccnc1CN1CCC2(CC1)C(=O)N(c1ccc(C3CC3C(=O)O)cc1)C(=O)N2c1ncccn1 (stereo not shown)" measured_value="0.5 to 20 nM"
compound=Cc1cccnc1CN1CCC2(CC1)C(=O)N(c1ccc(-c3ccccc3)cc1)C(=O)N2c1cccnc1 measured_value="0.5 to 20 nM"
